B1: library; a variant is named by its letters at N, in order (parent)
chain: GCUGUCACCGGAAUACCAGCAUCGUCUUGAUGCCCUUGGAAGUCCGGUCUGAUGAGUCCNNNNNGGACGAAACAGC

# Variants of: B1
# measurement-description: FACS-Seq fitted mean relative fluorescence mCherry/BFP without ligand (log10 relative fluorescence); higher = higher reporter protein expression
# assay-setup: HEK293T, ligand present: no
Below, each entry is listed alongside its reported FACS-Seq fitted mean (log10).
measured-metric: FACS-Seq fitted mean (log10)

seq="GCUGUCACCGGAAUACCAGCAUCGUCUUGAUGCCCUUGGAAGUCCGGUCUGAUGAGUCCGACAUGGACGAAACAGC [GACAU]" measured_metric="FACS-Seq fitted mean (log10)" observed=0.478
seq="GCUGUCACCGGAAUACCAGCAUCGUCUUGAUGCCCUUGGAAGUCCGGUCUGAUGAGUCCCUAUCGGACGAAACAGC [CUAUC]" measured_metric="FACS-Seq fitted mean (log10)" observed=1.23
seq="GCUGUCACCGGAAUACCAGCAUCGUCUUGAUGCCCUUGGAAGUCCGGUCUGAUGAGUCCGAAACGGACGAAACAGC [GAAAC]" measured_metric="FACS-Seq fitted mean (log10)" observed=0.594
seq="GCUGUCACCGGAAUACCAGCAUCGUCUUGAUGCCCUUGGAAGUCCGGUCUGAUGAGUCCCCAGAGGACGAAACAGC [CCAGA]" measured_metric="FACS-Seq fitted mean (log10)" observed=0.765
seq="GCUGUCACCGGAAUACCAGCAUCGUCUUGAUGCCCUUGGAAGUCCGGUCUGAUGAGUCCAUGGCGGACGAAACAGC [AUGGC]" measured_metric="FACS-Seq fitted mean (log10)" observed=0.932
seq="GCUGUCACCGGAAUACCAGCAUCGUCUUGAUGCCCUUGGAAGUCCGGUCUGAUGAGUCCAGACAGGACGAAACAGC [AGACA]" measured_metric="FACS-Seq fitted mean (log10)" observed=0.0301
seq="GCUGUCACCGGAAUACCAGCAUCGUCUUGAUGCCCUUGGAAGUCCGGUCUGAUGAGUCCCAAUCGGACGAAACAGC [CAAUC]" measured_metric="FACS-Seq fitted mean (log10)" observed=0.844
seq="GCUGUCACCGGAAUACCAGCAUCGUCUUGAUGCCCUUGGAAGUCCGGUCUGAUGAGUCCGAAGGGGACGAAACAGC [GAAGG]" measured_metric="FACS-Seq fitted mean (log10)" observed=0.991
seq="GCUGUCACCGGAAUACCAGCAUCGUCUUGAUGCCCUUGGAAGUCCGGUCUGAUGAGUCCAACUUGGACGAAACAGC [AACUU]" measured_metric="FACS-Seq fitted mean (log10)" observed=1.01
seq="GCUGUCACCGGAAUACCAGCAUCGUCUUGAUGCCCUUGGAAGUCCGGUCUGAUGAGUCCAAAGGGGACGAAACAGC [AAAGG]" measured_metric="FACS-Seq fitted mean (log10)" observed=0.199
seq="GCUGUCACCGGAAUACCAGCAUCGUCUUGAUGCCCUUGGAAGUCCGGUCUGAUGAGUCCACGACGGACGAAACAGC [ACGAC]" measured_metric="FACS-Seq fitted mean (log10)" observed=1.26
seq="GCUGUCACCGGAAUACCAGCAUCGUCUUGAUGCCCUUGGAAGUCCGGUCUGAUGAGUCCACCCUGGACGAAACAGC [ACCCU]" measured_metric="FACS-Seq fitted mean (log10)" observed=0.718
seq="GCUGUCACCGGAAUACCAGCAUCGUCUUGAUGCCCUUGGAAGUCCGGUCUGAUGAGUCCACCAUGGACGAAACAGC [ACCAU]" measured_metric="FACS-Seq fitted mean (log10)" observed=0.574
seq="GCUGUCACCGGAAUACCAGCAUCGUCUUGAUGCCCUUGGAAGUCCGGUCUGAUGAGUCCUAUCGGGACGAAACAGC [UAUCG]" measured_metric="FACS-Seq fitted mean (log10)" observed=1.02
seq="GCUGUCACCGGAAUACCAGCAUCGUCUUGAUGCCCUUGGAAGUCCGGUCUGAUGAGUCCACCGUGGACGAAACAGC [ACCGU]" measured_metric="FACS-Seq fitted mean (log10)" observed=0.885
seq="GCUGUCACCGGAAUACCAGCAUCGUCUUGAUGCCCUUGGAAGUCCGGUCUGAUGAGUCCCUGAUGGACGAAACAGC [CUGAU]" measured_metric="FACS-Seq fitted mean (log10)" observed=1.02
seq="GCUGUCACCGGAAUACCAGCAUCGUCUUGAUGCCCUUGGAAGUCCGGUCUGAUGAGUCCCGAGAGGACGAAACAGC [CGAGA]" measured_metric="FACS-Seq fitted mean (log10)" observed=0.788
seq="GCUGUCACCGGAAUACCAGCAUCGUCUUGAUGCCCUUGGAAGUCCGGUCUGAUGAGUCCAACCGGGACGAAACAGC [AACCG]" measured_metric="FACS-Seq fitted mean (log10)" observed=0.924
seq="GCUGUCACCGGAAUACCAGCAUCGUCUUGAUGCCCUUGGAAGUCCGGUCUGAUGAGUCCCUGUUGGACGAAACAGC [CUGUU]" measured_metric="FACS-Seq fitted mean (log10)" observed=-0.291
seq="GCUGUCACCGGAAUACCAGCAUCGUCUUGAUGCCCUUGGAAGUCCGGUCUGAUGAGUCCCGUUUGGACGAAACAGC [CGUUU]" measured_metric="FACS-Seq fitted mean (log10)" observed=0.252
seq="GCUGUCACCGGAAUACCAGCAUCGUCUUGAUGCCCUUGGAAGUCCGGUCUGAUGAGUCCCGAAAGGACGAAACAGC [CGAAA]" measured_metric="FACS-Seq fitted mean (log10)" observed=0.0755
seq="GCUGUCACCGGAAUACCAGCAUCGUCUUGAUGCCCUUGGAAGUCCGGUCUGAUGAGUCCUGUGCGGACGAAACAGC [UGUGC]" measured_metric="FACS-Seq fitted mean (log10)" observed=0.71
seq="GCUGUCACCGGAAUACCAGCAUCGUCUUGAUGCCCUUGGAAGUCCGGUCUGAUGAGUCCAGCCAGGACGAAACAGC [AGCCA]" measured_metric="FACS-Seq fitted mean (log10)" observed=0.758
seq="GCUGUCACCGGAAUACCAGCAUCGUCUUGAUGCCCUUGGAAGUCCGGUCUGAUGAGUCCACGUCGGACGAAACAGC [ACGUC]" measured_metric="FACS-Seq fitted mean (log10)" observed=1.11
seq="GCUGUCACCGGAAUACCAGCAUCGUCUUGAUGCCCUUGGAAGUCCGGUCUGAUGAGUCCGCCCUGGACGAAACAGC [GCCCU]" measured_metric="FACS-Seq fitted mean (log10)" observed=1.07
seq="GCUGUCACCGGAAUACCAGCAUCGUCUUGAUGCCCUUGGAAGUCCGGUCUGAUGAGUCCUCCACGGACGAAACAGC [UCCAC]" measured_metric="FACS-Seq fitted mean (log10)" observed=0.712
seq="GCUGUCACCGGAAUACCAGCAUCGUCUUGAUGCCCUUGGAAGUCCGGUCUGAUGAGUCCCAUAUGGACGAAACAGC [CAUAU]" measured_metric="FACS-Seq fitted mean (log10)" observed=0.397
seq="GCUGUCACCGGAAUACCAGCAUCGUCUUGAUGCCCUUGGAAGUCCGGUCUGAUGAGUCCAUUGAGGACGAAACAGC [AUUGA]" measured_metric="FACS-Seq fitted mean (log10)" observed=0.66
